# Tested on: Candida albican ATCC 96901
# measurement.notes: In vitro antifungal activity (MIC80), Candida albican ATCC 96901
# Assay type: cell-based
# test.settings: Candida, ATCC96901; Table 2, ATCC 96901; read-out: Minimal inhibitory concentration (MIC80)
Overview of reported MIC80 across a group of compounds:
The reply should be a number in µg/mL, with the unit left off.

The cases that follow already have their MIC80 on record.
smiles_representation=C[C@@H](N1CCN(Cc2cccs2)CC1)[C@](O)(Cn1cncn1)c1ccc(F)cc1F target_system="Candida albican ATCC 96901" quantity_name=MIC80 measured_number=64
smiles_representation=C[C@@H](N1CCN(c2nc3ccc(Cl)cc3s2)CC1)[C@](O)(Cn1cncn1)c1ccc(F)cc1F target_system="Candida albican ATCC 96901" quantity_name=MIC80 measured_number=2

--- query ---
Note down MIC80 recorded for C[C@@H](N1CCCN(c2ccc3ccccc3n2)CC1)[C@](O)(Cn1cncn1)c1ccc(F)cc1F
16
